Test: Metabolic stability test in pooled human liver microsomes
Format: in vitro ADME
Conditions: human liver microsomes 0.5 mg protein/mL, 1 mmol/L NADPH, 37° C., 30 minutes
assayMetric: MS_h_% (remaining amount of compound after reaction, 0 minute = 100%)
Please give a number only; it is taken to be in %.

Examples from the recorded data:
[
  {
    "compound": "Cc1cc2nc(C)c(C(=O)NCc3ccc(C4CCN(c5ccc(OC(F)(F)F)cc5)CC4)c(F)c3)n2cc1Cl",
    "endpointUnit": "%",
    "measValue": 82
  },
  {
    "compound": "Cc1cn2c(C(=O)NCc3ccc(-c4ccc(OC(C)C)cc4)c(F)c3)c(C)nc2s1",
    "endpointUnit": "%",
    "measValue": 78.5
  },
  {
    "compound": "CCOc1ccc(N2CCN(c3ccc(CNC(=O)c4c(CC)nc5ccc(Cl)cn45)c(F)c3)C[C@@H]2C)cc1.Cl",
    "endpointUnit": "%",
    "measValue": 65
  },
  {
    "compound": "CCOc1ccc(N2CCN(c3ccc(CNC(=O)c4c(CC)nc5ccc(Cl)cn45)c(F)c3)C[C@@H]2C)c(F)c1.Cl",
    "endpointUnit": "%",
    "measValue": 90
  },
  {
    "compound": "Cc1ccn2c(C(=O)NCc3ccc(N4CCC(c5ccc(OC(F)(F)F)cc5)[C@@H](C)C4)c(F)c3)c(Cl)nc2c1.Cl (some centres unmarked)",
    "endpointUnit": "%",
    "measValue": 89
  }
]

Query (compound): CCc1nc2cc(C)c(Cl)cn2c1C(=O)NCc1ccc(N2CCN(c3ccc(OC(F)(F)F)cc3)[C@@H](C)C2)c(F)c1 ; field requested: MS_h_% (remaining amount of compound after reaction, 0 minute = 100%)
69

And CCc1nc2cc(F)ccn2c1C(=O)NCc1ccc(C2CCN(c3ccc(C(F)(F)F)cc3)CC2)cc1F.Cl ?
65

Entry to check: CCc1nc2ccc(Cl)cn2c1C(=O)NCc1ccc(C2CCN(c3ccc(OC(F)(F)F)cc3)CC2)cc1F
60

Next compound: Cc1ccn2c(C(=O)NCc3ccc(C4CCN(c5ccc(OCCF)cc5)CC4)c(F)c3)c(C)nc2c1
70

Try COc1ccn2nc(C)c(C(=O)NCc3ccc(N4CCN(c5ccc(OC(F)(F)F)cc5)[C@H](C)C4)c(F)c3)c2c1.Cl next.
89

What would you report for CCc1nc2cc(Cl)ccn2c1C(=O)NCc1ccc(N2CCN(c3ccc(OC(F)(F)F)cc3)[C@@H](C)C2)c(F)c1 ?
91

What do you have for CCc1nc2ccc(F)cn2c1C(=O)NCc1ccc(N2CCN(c3ccc(OC(F)(F)F)cc3)[C@@H](C)C2)c(F)c1 ?
65

Also Cc1nc2cc(Cl)ccn2c1C(=O)NCc1ccc(N2CC=C(c3ccc(OC(F)(F)F)cc3)CC2)c(F)c1.Cl , if possible.
72

And the next one, Cc1nn2ccccc2c1C(=O)NCc1ccc(N2CCN(c3ccc(OC(F)(F)F)cc3)[C@@H](C)C2)c(F)c1.Cl ?
72

---

This listing pairs compounds with measured MS_h_% (remaining amount of compound after reaction, 0 minute = 100%).
Experiment: Metabolic stability test in pooled human liver microsomes
Type: in vitro ADME
Conditions: human liver microsomes 0.5 mg protein/mL, 1 mmol/L NADPH, 37° C., 30 minutes
State the answer as a number, implicitly in %.

Below, each entry is followed by its recorded MS_h_% (remaining amount of compound after reaction, 0 minute = 100%) result.
[
  {
    "compound": "O=C(NCc1ccc(C2CCN(c3ccc(OC(F)(F)F)cc3)CC2)c(F)c1)c1c(C(F)(F)F)nc2ccc(Cl)cn12 [Compound I-1-30]",
    "measValue": 89
  },
  {
    "compound": "CCc1nc2ccc(Cl)cn2c1C(=O)NCc1ccc(N2CCC(c3ccc(OC(F)(F)F)cc3)CC2)c(F)c1.Cl",
    "measValue": 82
  },
  {
    "compound": "COc1ccn2nc(C)c(C(=O)NCc3cc(F)c(N4CCN(c5ccc(OC(F)(F)F)cc5)[C@@H](C)C4)cc3F)c2c1.Cl",
    "measValue": 73
  },
  {
    "compound": "CCc1nc2ccc(Cl)cn2c1C(=O)NCc1ccc(N2CCN(c3ccc(OC(F)(F)F)cc3)C3(CCCC3)C2)c(F)c1",
    "measValue": 58.2
  },
  {
    "compound": "Cc1ccn2c(C(=O)NCc3ccc(N4CCC(c5ccc(OC(F)(F)F)cc5)CC4)c(F)c3)c(C)nc2c1.Cl",
    "measValue": 96
  }
]

What measured MS_h_% (remaining amount of compound after reaction, 0 minute = 100%) goes with COc1ccn2nc(C)c(C(=O)NCc3ccc(N4CCN(c5ccc(OC(F)(F)F)cc5)[C@H]5CCCC[C@@H]54)c(F)c3)c2c1 ?
68

Please do the same for CCc1nc2ccc(Cl)cn2c1C(=O)NCc1ccc(N2CCC(c3ccc(OC(F)(F)F)cc3)CC2)c(Cl)c1.Cl as well.
74

What about O=C(NCc1ccc(C2CCN(c3ccc(OC(F)(F)F)cc3)CC2)c(F)c1)c1c(C(F)(F)F)nc2ccc(Cl)cn12 [Compound I-1-17] ?
63
